Numbers sourced from ChEMBL document CHEMBL1961873.

So I've got a bunch of compounds here, and I need their inhibition values.
# System: Epidermal growth factor receptor (Homo sapiens), P00533 [T790M]
# Sequence (P00533 whole entry T790M): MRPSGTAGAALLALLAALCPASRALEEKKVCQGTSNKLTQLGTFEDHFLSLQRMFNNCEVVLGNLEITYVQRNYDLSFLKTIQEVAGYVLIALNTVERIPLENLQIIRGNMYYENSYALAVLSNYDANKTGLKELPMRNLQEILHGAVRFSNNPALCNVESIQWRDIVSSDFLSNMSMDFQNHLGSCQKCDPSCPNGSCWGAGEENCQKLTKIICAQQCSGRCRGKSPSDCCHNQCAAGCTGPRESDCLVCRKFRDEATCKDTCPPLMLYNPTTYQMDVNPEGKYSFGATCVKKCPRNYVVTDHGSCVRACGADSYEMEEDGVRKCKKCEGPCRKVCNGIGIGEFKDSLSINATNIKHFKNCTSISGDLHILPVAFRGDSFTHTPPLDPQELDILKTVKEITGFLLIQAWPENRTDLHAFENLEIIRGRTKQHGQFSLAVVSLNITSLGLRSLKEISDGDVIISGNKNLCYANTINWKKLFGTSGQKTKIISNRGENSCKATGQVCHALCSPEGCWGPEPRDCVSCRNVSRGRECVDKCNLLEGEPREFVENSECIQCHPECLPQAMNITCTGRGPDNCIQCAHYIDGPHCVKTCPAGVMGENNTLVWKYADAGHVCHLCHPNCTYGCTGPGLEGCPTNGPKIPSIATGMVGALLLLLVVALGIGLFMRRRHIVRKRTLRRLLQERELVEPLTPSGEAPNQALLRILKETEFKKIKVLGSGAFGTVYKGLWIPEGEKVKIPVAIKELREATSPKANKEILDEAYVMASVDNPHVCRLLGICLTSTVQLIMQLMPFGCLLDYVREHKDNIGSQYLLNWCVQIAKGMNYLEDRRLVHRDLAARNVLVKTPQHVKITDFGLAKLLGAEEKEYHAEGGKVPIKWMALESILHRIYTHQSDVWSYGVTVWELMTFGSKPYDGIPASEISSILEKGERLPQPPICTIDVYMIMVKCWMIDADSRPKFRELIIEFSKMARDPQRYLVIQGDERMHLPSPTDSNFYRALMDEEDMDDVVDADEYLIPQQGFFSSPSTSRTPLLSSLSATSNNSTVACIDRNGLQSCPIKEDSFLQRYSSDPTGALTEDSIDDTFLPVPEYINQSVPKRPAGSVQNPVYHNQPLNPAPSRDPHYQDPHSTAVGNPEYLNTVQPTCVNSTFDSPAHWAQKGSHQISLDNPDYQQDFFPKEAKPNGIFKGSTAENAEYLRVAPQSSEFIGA
# experimental_parameters: at 1 µM
# value in %; strip the unit string

**Query** // returns reported inhibition for input COc1ccccc1-c1cc(/C=C2\C(=O)Nc3ncc(Br)cc32)cc(Br)c1O
**Result** 1.53

**Query** Which inhibition value is on record for Cc1c2ccc(N(C)c3ccnc(Nc4cccc(S(N)(=O)=O)c4)n3)cc2nn1C ?
**Result** 3.28

**Query** Look up inhibition: Cc1ccc(-c2cc3c(NC(=O)C4CC4)ncnc3o2)cc1
**Result** 0.67

**Query** Record request: inhibition value, item CS(=O)(=O)CCNCc1ccc(-c2ccc3ncnc(Nc4ccc(OCc5ccccc5)cc4)c3c2)o1
**Result** 12.4

**Query** Entry under review: NS(=O)(=O)c1ccc(N/N=C2\C(=O)Nc3ccc(C(=O)NCc4ccncc4)cc32)cc1 . Reported inhibition?
**Result** 5.2

**Query** Could you share which inhibition value was measured for COC(=O)Nc1nc2cc(Oc3ccc(NC(=O)Nc4ccccc4)cc3)ccc2[nH]1 ?
**Result** 2.64

**Query** Could you tell me which inhibition is on file for Cc1cc(O)cc(C)c1/C=C/c1cncc(C(=O)OC(C)(C)C)c1 ?
**Result** 2.69

**Query** I would be grateful if you could share the reported inhibition for Cc1nnc(-c2cccc(-c3ccc(C(=O)NCC4CC4)cc3)c2)o1 .
**Result** 4.56

**Query** Which inhibition reading was recorded for the compound NC(=O)c1ccc2c(-c3ccnc(NCCCO)n3)c(-c3ccc(F)cc3)nn2c1 ?
**Result** 2.72

**Query** Please look up its inhibition: CN(c1ccc(NC(=O)NCCN2CCOCC2)cc1)c1ccnc(Nc2ccc(CS(C)(=O)=O)cc2)n1
**Result** 4.33

**Query** Name the reported inhibition value associated with the compound CC(C)c1ccc(-c2cc(-c3c[nH]nc3-c3ccccn3)ccn2)cc1
**Result** 0.59

**Query** # lookup: inhibition of CC1(C)CC(n2cnc(-c3ccc(F)cc3)c2-c2ccnc(N)n2)CC(C)(C)N1
**Result** -1.34
